Tested on: OVCAR-8
Assay name: NCI tumour cell line growth inhibition, 48 h
Activity calls are given as the source filed them. Rule as the data show it: active = GI50 up to about 1.1 µM and inactive = higher.
Readout name: GI50

- Compound: "NS(=O)(=O)c1ccc(-c2ccc([As](=O)(O)O)cc2)cc1"
  Recorded measurement: "> 100 µM (inactive)"
- Compound: "COc1cc(C2C(C(=O)O)=C(C)Oc3cc4c(cc32)OCO4)cc(OC)c1OC (stereo not given)"
  Recorded measurement: "51.2 µM (inactive)"
- Compound: "O=C(C1OC1c1ccc(Br)cc1O)C12CC3CC(CC(C3)C1)C2 (stereo not given)"
  Recorded measurement: "20.5 µM (inactive)"
- Compound: "COc1ccc(OCC(=O)O)c(C(=O)CCC(=O)O)c1"
  Recorded measurement: "> 100 µM (inactive)"
- Compound: "COc1ccccc1/C=N/N=C(\\N)NO"
  Recorded measurement: "> 10 µM (inactive)"
- Compound: "Cn1nc(-c2cccc(-c3nn(C)/c(=N\\CCO)s3)n2)s/c1=N/CCO"
  Recorded measurement: "> 100 µM (inactive)"
- Compound: "O=C1c2c(ccc3c2CCC3)CC1Cc1ccc2c(c1)CCC2 (stereo not given)"
  Recorded measurement: "36.3 µM (inactive)"
- Compound: "CCOC(=O)C(C)(NC(=O)c1ccc(NCc2ccc3nc(NC(=O)c4ccccc4)nc(NC(=O)c4ccccc4)c3c2)cc1)C(=O)OCC"
  Recorded measurement: "4.68 µM (inactive)"
- Compound: "O=C1c2ccccc2N2Oc3ccccc3C12c1ccccc1 (stereo not given)"
  Recorded measurement: "> 100 µM (inactive)"
- Compound: "COC1=NN2C(OC)(c3ccccc3)c3c(-c4ccccc4)sc(-c4ccccc4)c3C2(c2ccccc2)S1 (stereo not given)"
  Recorded measurement: "> 100 µM (inactive)"
